Data origin, for the record: patent US20080103141A1

Measured EC50, listed per entry.
- Target Of Assay: human GPR119 receptor (Homo sapiens)
- Construct: expressed in transfected cells
- Sequence (Q8TDV5 whole entry): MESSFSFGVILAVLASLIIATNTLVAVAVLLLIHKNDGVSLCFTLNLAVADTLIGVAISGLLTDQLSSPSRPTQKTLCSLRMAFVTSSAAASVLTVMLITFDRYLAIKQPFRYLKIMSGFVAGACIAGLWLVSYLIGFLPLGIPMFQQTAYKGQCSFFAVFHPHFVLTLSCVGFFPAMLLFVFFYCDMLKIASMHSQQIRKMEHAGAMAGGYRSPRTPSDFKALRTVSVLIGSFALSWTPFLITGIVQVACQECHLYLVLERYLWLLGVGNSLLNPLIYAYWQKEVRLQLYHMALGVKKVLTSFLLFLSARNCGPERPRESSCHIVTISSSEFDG
- Assay Comment: Human GPR119 activity assay (cAMP HTRF in HEK293-hGPR119 cells)
- Format: cell-based
- Measurement Conditions: stimulation of cAMP in HEK293 cells stably expressing human GPR119, 20 min at room temperature, read-out: Agonist potency at the human GPR119, EC50

Smiles Representation | Unit Name | EC50
CC(C)(C)OC(=O)N1CCC(COc2ncc(-c3ccc(S(C)(=O)=O)cc3)cn2)CC1 | nM | 14
CC(C)(C)OC(=O)N1CCC(NCc2cnc(-c3ccc(S(C)(=O)=O)cc3)nc2)CC1 | nM | 453
CC(C)(C)OC(=O)N1CCC(CNc2ncc(-c3ccc(S(C)(=O)=O)cc3)cn2)CC1 | nM | 55
